test: chemical genetic growth profiling, strain panel (AID 1159580);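 note: tested at 20 µM; growth read once vehicle control cultures reached saturation at 30 °C; 1 = growth at the plate median or of vehicle wells; lower values mean less growth of the strain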; conditions: S. cerevisiae deletion strains, growth OD, locus YOR270C, strain vph1, stronger effect = lower value
The campaign covered roughly 5,500 compounds. About 2,000 (36%) were called active. Not shown: some 18% with an inconclusive outcome. The list shows a part of the results. Where a SMILES comes first, the peptide text is derived from it.
reported-metric: normalized growth
Give bare numbers.

Consider the following illustrative entries.
COC1C=CC23c4cc5c(cc4CN(CC2O)[C@@H]3C1)OCO5 (stereo partly specified) ... 0.847
NC1(C(=O)O)CCCC1 ... 1.07
COc1ccc(-c2oc3cc(OC)c(OC)c(OC)c3c(=O)c2OC)cc1OC ... 0.863
Nc1nc(F)nc2c1ncn2[C@@H]1O[C@H](COP(=O)(O)O)[C@@H](O)[C@@H]1O ... 0.977
Clc1ccccc1CN1CCc2sccc2C1 ... 0.952

Consider the following items and state reported normalized growth for each.
1. Clc1ccc(C(Cn2ccnc2)OCc2ccsc2Cl)c(Cl)c1 (stereo unspecified)
2. CCCCCCCCCCCCCC(=O)OC1C(C)C2(O)C(C=C(CO)CC3(O)C(=O)C(C)=CC32)C2C(C)(C)C12OC(C)=O (stereo unspecified)
3. COc1ccc(-c2oc3cc(OC)c(OC)c(OC)c3c(=O)c2OC)cc1

output:
0.0903
0.948
0.785

Quick batch: normalized growth for everything below.
1. Fc1ccc([C@@H]2CCNC[C@H]2COc2ccc3c(c2)OCO3)cc1
2. CC(=O)N[C@@H](CC(=O)O)C(=O)N[C@@H](CCC(=O)O)C(=O)O (Ac-Asp-Glu-OH)
3. NCC[C@@H](O)C(=O)N[C@@H]1C[C@H](N)[C@@H](O[C@H]2O[C@H](CN)[C@@H](O)[C@H](O)[C@H]2O)[C@H](O)[C@H]1O[C@H]1O[C@H](CO)[C@@H](O)[C@H](N)C1O (stereo partly specified)
4. CC(=O)OCC(=O)[C@@]1(O)CCC2C3CCC4=CC(=O)C=CC4(C)C3[C@@H](O)C[C@@]21C (stereo partly specified)
5. Cc1onc(-c2ccccc2)c1-c1ccc(S(N)(=O)=O)cc1
6. CCCn1c(=O)c2[nH]c(C3CCCC3)nc2n(CCC)c1=O

output:
1. 0.905
2. 1.1
3. 1.05
4. 1.01
5. 1.01
6. 0.998

Record normalized growth per entry; entries follow.
1. CCC(=O)OC1[C@@H]2CC3=C4CC(=O)O[C@@H](c5ccoc5)[C@]4(C)CCC3[C@@](C)(C2=O)[C@@H](CC(=O)OC)C1(C)C (stereo partly specified)
2. Oc1c(Cl)cc(Cl)c(Cl)c1Cc1c(O)c(Cl)cc(Cl)c1Cl
3. CC(=O)C1CCC2C3CCC4C[C@H](O)CCC4(C)C3C[C@H](O)C12C (stereo partly specified)
4. NCCCNCCSP(=O)(O)O
5. CC(=O)C1CC[C@H]2C3CC[C@H]4C[C@H](O)CC[C@]4(C)C3CC[C@]12C (stereo partly specified)
6. O=C(O)C1CCCNC1 (stereo unspecified)
7. COc1ccc2oc3ccccc3c(=O)c2c1

output:
0.858
0.0914
0.964
0.924
0.949
1.04
0.528

Data credit: PubChem BioAssay AID1159580
